target: Aβ42 (Homo sapiens, UniProt P05067)
Sequence (P05067 672-713): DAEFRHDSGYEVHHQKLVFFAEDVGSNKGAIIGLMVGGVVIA
measurementNotes: Th-T (thioflavin-T) assay of Aβ42 aggregation
Assay type: biochemical
conditionDetails: reading M117; compound at 50 (head suffix _50)
Kindly return yes if reported Th-T fluorescence, mean of three wells (Fig. 7a) is no lower than 1; return no if it is lower.

molecule="C=C1CCC2C(C)(CCC=C(C)C)C(O)CCC2(C)C1Cc1c(OC)oc(C)c(C(=O)OC)c1=O (centres unmarked)" classification=yes
molecule=C=C1CC[C@@H]2[C@](C)(CC[C@H]3O[C@H](C=C(C)C)C[C@@]23C)[C@@H]1Cc1c(OC)oc(CO)c(C(=O)OC)c1=O classification=no
molecule="C=C1CCC2C(C)(CCC=C(C)C)C(O)CCC2(C)C1Cc1c(OC)oc(CO)c(C)c1=O (centres unmarked)" classification=yes
molecule=C=C1CC[C@@H]2[C@](C)(CC[C@H]3O[C@H](C=C(C)C)C[C@@]23C)[C@@H]1Cc1c(OC)oc(CO)c(C)c1=O classification=yes

Next item in the queue.
Inquiry: Check this molecule for Th-T fluorescence, mean of three wells (Fig. 7a) at or above 1: C=C1CCC2C(C)(CCC=C(C)C)C(O)CCC2(C)C1Cc1c(OC)oc(CO)c(C(=O)OC)c1=O (centres unmarked)
Reply text: no
